# System: Caenorhabditis elegans L1 (N2)
# protocol-details: survival and reproduction score of C. elegans L1 (0: 0-10 living worms, 1: 11-20, 2: 21-50, 3: >50, 4: overgrown) (score 0-4); higher = more worms, less nematicidal, active = 1 or less; extreme values may be limits of the assay
# reported-conditions: 60 µM; 6 days; temperature: 20 °C
Pick one and only one: active, inactive

| compound | group-label |
| --- | --- |
| Cc1cc(OCc2nc(-c3ccccn3)no2)c(C)cc1Br | inactive |
| COc1ccc(C(=O)Nc2ccc(-c3nnc(SCc4ccccc4)o3)cc2)cc1 | inactive |
| O=C(CSc1nnc(-c2ccccc2)o1)Nc1ccccc1F | inactive |
| Cc1ccccc1-c1noc(-c2ccc(F)cc2)n1 | inactive |
| C=CCOc1ccc(-c2nc(-c3cccnc3)no2)cc1 | active |

Input: Could you check what this test reported for COc1ccc(-c2noc(COc3ccc(Br)c(C)c3)n2)cc1 ?
Output: inactive

Input: Could you check what this test reported for Clc1ccc(-c2nc(-c3ccc4c(c3)OCO4)no2)cc1 ?
Output: inactive

Input: Could you check what this test reported for Clc1ccccc1-c1noc(-c2ccncc2)n1 ?
Output: inactive

* * *

# System: Caenorhabditis elegans L1 (N2)
# protocol-details: survival and reproduction score of C. elegans L1 (0: 0-10 living worms, 1: 11-20, 2: 21-50, 3: >50, 4: overgrown) (score 0-4); higher = more worms, less nematicidal, active = 1 or less; extreme values may be limits of the assay
# reported-conditions: 60 µM; 6 days; temperature: 20 °C
# key: entry, value: survival and reproduction score
Output: the number by itself.

| compound | val |
| --- | --- |
| Cc1ccc(-c2noc(COc3ccc(Br)cc3)n2)cc1 | 4 |
| Cc1cccc(OCc2nc(-c3ccncc3)no2)c1C | 4 |
| COc1cccc(NC(=O)CSc2nnc(-c3ccc(Br)cc3)o2)c1 | 4 |
| Fc1ccc(CSc2nnc(-c3ccccn3)o2)cc1 | 4 |
| CCc1ccc(OCc2nc(-c3ccc(Cl)cc3)no2)cc1 | 4 |
| Cc1ccc(-c2noc(-c3cccc(C)c3)n2)cc1 | 0 |
| Cc1ccc(Cl)cc1NC(=O)CSc1nnc(-c2ccncc2)o1 | 4 |
| Clc1cc(Br)ccc1OCc1nc(-c2ccncc2)no1 | 4 |

Input: Quick check: survival and reproduction score of Clc1ccc(CSc2nnc(-c3ccccc3)o2)c(Cl)c1 ?
Output: 4

Input: Quick check: survival and reproduction score of COc1cccc(-c2noc(COc3ccccc3Cl)n2)c1 ?
Output: 4

Input: Quick check: survival and reproduction score of Clc1ccccc1-c1noc(-c2cccnc2)n1 ?
Output: 4

* * *

# Tested on: Caenorhabditis elegans L1 (N2)
# protocol-details: survival and reproduction score of C. elegans L1 (0: 0-10 living worms, 1: 11-20, 2: 21-50, 3: >50, 4: overgrown) (score 0-4); higher = more worms, less nematicidal, active = 1 or less; extreme values may be limits of the assay
# reported-conditions: 60 µM; 6 days; temperature: 20 °C
Pick one and only one: active, inactive

Before answering, review these 10 worked examples.
| entry-smiles | group-label |
| --- | --- |
| CCCC(=O)Nc1ccccc1-c1nc(-c2ccncc2)no1 | inactive |
| COc1nc(C)ccc1-c1noc(-c2ccc(C(C)(C)C)cc2)n1 | inactive |
| Cc1cccc(-c2noc(-c3cccc(Cl)c3)n2)c1 | inactive |
| Cc1ccc(-c2nc(-c3cccc(C(F)(F)F)c3)no2)cc1 | inactive |
| COc1ccc(-c2nnc(SCc3ccccc3C)o2)cc1 | inactive |
| Brc1cccc(-c2nnc(SCc3ccccc3)o2)c1 | inactive |
| Cc1ccc(OCc2nc(-c3cccnc3)no2)c(Br)c1 | inactive |
| Cc1ccc(-c2nnc(SCC(=O)Nc3nccs3)o2)cc1 | inactive |
| CCOc1ccccc1NC(=O)CSc1nnc(-c2ccccc2)o1 | inactive |
| COc1ccccc1-c1noc(-c2ccccc2)n1 | inactive |

Input: Could you check what this test reported for O=C(CSc1nnc(-c2ccc(Cl)cc2)o1)NCc1ccccc1 ?
Output: inactive

Input: Could you check what this test reported for COc1cccc(-c2noc(COc3ccc(C)cc3C)n2)c1 ?
Output: inactive

Input: Could you check what this test reported for Clc1ccc(-c2nc(-c3ccccc3Br)no2)cc1 ?
Output: inactive

Input: Could you check what this test reported for Cc1ccc(OCc2nc(-c3ccc(Br)o3)no2)cc1C ?
Output: inactive

Input: Could you check what this test reported for Cc1nc(CSc2nnc(-c3ccccc3)o2)cs1 ?
Output: inactive

Input: Could you check what this test reported for O=C(CSc1nnc(-c2cc3ccccc3o2)o1)NC1CC1 ?
Output: inactive

Input: Could you check what this test reported for CC(=O)Nc1cccc(-c2nnc(SCc3ccccc3)o2)c1 ?
Output: inactive

Input: Could you check what this test reported for Cn1cc(C(=O)CSc2nnc(-c3ccccc3)o2)c2ccccc21 ?
Output: active
